Where these numbers come from: paper PMC3895407

method.summary: in vitro
So I've got a bunch of compounds here, and I need their CC50 values.

Recorded result, Cn1ccc(CNC(=O)C2CCN(C(=O)c3cc4ccccc4n3Cc3ccc(Cl)cc3)CC2)n1 [27e] , CC50: > 100 µM

Summary for this compound, O=C(NCc1ccncc1)C1CCN(C(=O)c2cc3ccccc3n2Cc2ccc(Cl)cc2)CC1 [compound 4] : CC50 is > 100 µM

The compound identified as CN(Cc1ccccc1)C(=O)C1CCN(C(=O)c2cc3ccccc3n2Cc2ccc([N+](=O)[O-])cc2)CC1 [28b] registered its CC50 at > 100 µM

Briefly, CC50 measured for COCCn1c(C(=O)N2CCC(C(=O)N(C)Cc3ccccc3)CC2)cc2ccccc21 [28f] : > 50 µM
